assayed_system: human FSH receptor (Homo sapiens, UniProt P23945)
Sequence (P23945 18-695): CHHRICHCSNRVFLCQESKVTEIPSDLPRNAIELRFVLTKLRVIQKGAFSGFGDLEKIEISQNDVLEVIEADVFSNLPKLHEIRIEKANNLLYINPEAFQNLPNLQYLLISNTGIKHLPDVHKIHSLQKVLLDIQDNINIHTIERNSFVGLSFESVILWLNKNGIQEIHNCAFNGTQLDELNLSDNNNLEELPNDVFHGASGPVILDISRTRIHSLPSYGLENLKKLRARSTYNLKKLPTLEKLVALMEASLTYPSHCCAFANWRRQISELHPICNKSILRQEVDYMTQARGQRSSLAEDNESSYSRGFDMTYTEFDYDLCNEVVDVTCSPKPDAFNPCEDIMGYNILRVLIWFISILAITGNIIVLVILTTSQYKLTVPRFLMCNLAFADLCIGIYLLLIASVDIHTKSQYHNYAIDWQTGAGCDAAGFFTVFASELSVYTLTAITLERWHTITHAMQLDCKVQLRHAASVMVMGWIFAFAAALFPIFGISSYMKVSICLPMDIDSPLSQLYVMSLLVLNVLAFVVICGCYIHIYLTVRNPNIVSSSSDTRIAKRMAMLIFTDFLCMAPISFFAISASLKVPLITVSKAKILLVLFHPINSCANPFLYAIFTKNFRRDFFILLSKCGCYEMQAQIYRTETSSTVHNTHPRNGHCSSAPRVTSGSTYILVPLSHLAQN
method_description: HTRF assay for measuring cAMP in cells (FSH antagonism)
particulars: FSH-antagonistic effect; hFSHR clone 16 cells (CHO cells stably transfected with the human FSH receptor); in the presence of 1e-9 mol/l hFSH; 37°C for 2h
experimental_readout: IC50 (µM)

COc1ccccc1C#Cc1ccc(OC(C)C)c(C(=O)N[C@H](CO)Cc2c[nH]c3ccccc23)c1 [Example 4] :: 7.5

P: Cc1ccccc1C#Cc1ccc(OC(C)C)c(C(=O)N[C@@H](CO)Cc2c[nH]c3ccccc23)c1 [Example 5]
Q: CCn1cc(C[C@H](CO)NC(=O)c2cc(C#Cc3ccccc3OC)ccc2OC(C)C)c2ccccc21 [Example 24]
R: COc1ccccc1C#Cc1ccc(OC(C)C)c(C(=O)NC(CO)Cc2c[nH]c3cc(F)c(F)cc23)c1 (racemic) [Example 23]
S: CC(C)Oc1ccc(C#Cc2ccccc2)cc1C(=O)NC(CO)Cc1c[nH]c2ccc(F)cc12 (stereo not shown) [Example 21]
**Q:** Highest IC50 first, then in falling order down to the smallest. Output spec: labels arranged per the requested ranking.
**A:** S, P, R, Q
(S: 0.3 µM, P: 0.08 µM, R: 0.03 µM, Q: 0.02 µM)

The reported measurements were obtained from patent EP1932831A1.
